Values were extracted from ChEMBL document CHEMBL3301361.

assay: in vitro; conditions: human, plasma, PPB
ENDPOINT: fraction unbound at 5 h
Reply with just the number.

Consider the worked cases shown below.
Fc1ccc(-c2c[nH]c(C3CCN(Cc4ccn(-c5ccc(C(F)(F)F)cc5)c4)CC3)n2)cc1    0.0009
O=c1cc(N2CCOCC2)nc(NCc2cccc(Cl)c2)[nH]1    0.0705
Nc1[nH]ncc1-c1cc(Cl)ccc1Oc1cc(F)c(S(=O)(=O)Nc2cscn2)cc1Cl    0.0024
COCCNC(=O)c1ccc(Nc2ncc3cc(-c4ccncc4OC)ccc3n2)cc1    0.002
CCC[C@@H](CNC(=O)c1nc(Cl)c(N)nc1N)[N+](C)(C)CCCc1ccc(OC)cc1    0.511
COC[C@@H](O)Cn1c(=O)cnn(-c2ccc(Cl)c(C(=O)NCC3(O)CCCCCC3)c2)c1=O    0.586
C[C@H](Nc1nc(Nc2ncc(C#N)s2)cc(N2CCOCC2)n1)c1ccc(F)cn1    0.0594
Cc1cn([C@H]2CCCN(Cc3ccc(C(=O)O)c(Oc4cccc(C(F)(F)F)c4)c3)C2)c(=O)[nH]c1=O    0.0293
CCOc1cc2ncc(C(N)=O)c(Nc3ccc(F)cc3F)c2cc1N1CCCN(C)CC1    0.304
CS(=O)(=O)c1ccc(C2=C(c3ccccc3)C(=O)OC2)cc1    0.069

Which fraction unbound at 5 h value belongs to COc1ccc2c(C)cc(N[C@H]3CC[C@H](NCc4cn(C)c5ccc(C#N)cc45)C3)nc2c1 ? 0.0139

Please do the same for O=C(O)CCc1nc(-c2ccccc2)c(-c2ccccc2)o1 as well. 0.0005

Queued: Cc1cnc(-c2c(F)ccc(F)c2CCNC(=O)c2ccc(COCC(F)(F)F)nc2)cn1 0.0801

Next entry: C#CC[C@@H](C(=O)N[C@H](/C=C/C(=O)OCC)C[C@@H]1CCNC1=O)n1cccc(NC(=O)c2cc(C)on2)c1=O 0.443

Moving on to CCCCc1nc2c(N)nc3ccccc3c2n1CC(C)C 0.062

What do we get for O=C(O)c1ccc2nc(C(F)(F)F)[nH]c2c1 ? 0.101

Item: CC(C)(C)[C@@H](O)C(=O)N1CCC[C@H]1C(=O)NCc1cc(Cl)ccc1CN 0.58

Would you mind doing CC(C)(C)NC(=O)NCCN1CCN(CC(=O)Nc2cc(Cl)cc(Cl)c2)CC1 as well? 0.0521

Please answer likewise for N#Cc1cccc(-c2cc(Cl)ccc2OCC(=O)O)c1 0.0075
